test: growth inhibitors of H69AR lung tumor, primary screen, human, duplicate replicates (AID 580); settings: H69AR lung tumor cells viability, ATP luminescence, 72 h; at 10 µM;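 note: 100% = mean luminescence of untreated wells and 0% = no signal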
Activity calls are given as the source filed them.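 Rule for the calls: active = viability at or under a set limit in both replicates, limit being median viability minus 3 SD (cut at about 48% in these data, passing the limit was not always enough); inconclusive = at or under the limit in just one replicate; inactive = at or above the limit in both replicates.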
Select the correct class. Options are Y = active, N = inactive and nothing else.

compound	assignedLabel
Cc1ccc(-n2ncc3c(N4CCN(c5ccccc5)CC4)ncnc32)c(C)c1	N

Task item: Just curious, what result did CCN(CC)C(c1ccc(C)cc1)c1nnnn1C1CCCCC1 (centres undefined) get here?
Reply: N

Task item: Recorded test call requested for COc1ccc(-c2noc(-c3ccccc3C(=O)Nc3cccnc3)n2)cc1
Reply: N

Task item: Could you please tell me the result logged for C=CCn1c(SCC(=O)Nc2cccc(OC)c2)nnc1-c1cccnc1 in this assay?
Reply: N

Task item: Which result was noted for this compound in the test: CCOC(=O)c1cc2sc(C)cc2n1CC(=O)NCc1ccc(F)cc1
Reply: N

Task item: Query: recorded result category for Cc1nn(-c2nc3ccccc3[nH]2)c(N)c1-c1ccccc1 in this test
Reply: Y

Task item: GET /call?item= CCCC(=O)Nc1c2c(nn1-c1ccc(OC)cc1)CS(=O)C2 (centres undefined) returns the recorded outcome of this test.
Reply: N

Task item: Dear colleague, could you share the recorded outcome for Cn1c(C(=O)OCC(=O)NCC2CCCO2)cc2sccc21 (centres undefined) when you have a moment?
Reply: N

###

test: 384-well plate pilot, post-Golgi transport modulator project, inhibition of yeast transport mutant growth (AID 636); details: absorbance 615 nm, about 18 h, stronger effect = higher value
Each entry below carries its reported inhibition.
Please reply with the bare figure in % and do not write the unit itself.

compound	inhibition [%]
Cc1cc(C)nc(NS(=O)(=O)c2ccc(NC(=O)Cn3c(=O)oc4ccccc43)cc2)n1	-0.9
COc1ccc(CNc2oc(-c3cccc4ccccc34)nc2C#N)cc1	-4.93
O=C(O)c1cnn2c1NC(c1ccc(F)cc1)CC2C(F)(F)F (stereo unspecified)	-6.32

Task item: Fill in reported inhibition for this entry: COc1cccc(OCC(=O)Nc2ccccc2C(N)=O)c1
Reply: -1.51

Task item: Name the recorded inhibition of the compound listed here: CCOc1nc(-c2ccccc2O)nc2ccccc12
Reply: 1.23

Task item: State its inhibition: O=C(Nc1nccs1)c1ccc(Cl)c(S(=O)(=O)N2CCCCC2)c1
Reply: -5.81

Task item: Fill in reported inhibition for this entry: CCOC(=O)C1C(=O)NC(SCC(=O)Nc2nccs2)=C(C#N)C1c1ccccc1OCC (stereo unspecified)
Reply: -1.45

Task item: Indicate its recorded inhibition; the compound in question is CCOc1ccc(OCC)c(NC(=O)C2CCN(c3ncccn3)CC2)c1
Reply: -3.47

Task item: Give inhibition for the following compound: CCn1cc(C(=O)N2CCN(C(=O)c3ccco3)CC2)c2cc(OC)c(OC)cc2c1=O
Reply: -4.61

Task item: Find the measured inhibition of Cc1cccc(C)c1-n1nnnc1SCSc1nnnn1-c1c(C)cccc1C and report it.
Reply: -7.81

Task item: Specify reported inhibition for the compound shown: Cn1c(=N)c(S(=O)(=O)c2ccccc2)cc2c(=O)n3ccccc3nc21
Reply: 3.87

Task item: Provide one value: measured inhibition of CC1CNCCN1S(=O)(=O)c1cccc2cnccc12 (stereo unspecified)
Reply: 1.3

Task item: Read off the recorded inhibition for Cc1ccc(Cl)cc1N1CCN(C(=O)CN2C(=O)c3cccc4cccc2c34)CC1
Reply: -4.42

Task item: In one line, give reported inhibition of the entry Fc1cccc(Nc2cc(-n3cccn3)ncn2)c1 .
Reply: -7.81

Task item: Supply measured inhibition of COc1ccccc1NC(=O)Cn1nnc(-c2ccccc2NC(=O)c2ccco2)n1 in your reply.
Reply: -5.41

Task item: Give inhibition for the following compound: Cc1cc(N2C(=O)CC(N3CCN(c4ccc(C(=O)c5cccs5)cc4)CC3)C2=O)no1 (stereo unspecified)
Reply: -3.42

###

Examples of compounds with documented viability follow.
experiment: growth inhibitors of H69AR lung tumor, primary screen, human, duplicate replicates (AID 580); settings: H69AR lung tumor cells viability, ATP luminescence, 72 h; at 10 µM; stronger effect = lower value;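 note: 100% = mean luminescence of untreated wells and 0% = no signal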
Calls of active or inactive are those of the source.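 Rule for the calls: active = viability at or under a set limit in both replicates, limit being median viability minus 3 SD (cut at about 48% in these data, passing the limit was not always enough); inconclusive = at or under the limit in just one replicate; inactive = at or above the limit in both replicates.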

The following compounds have reported results that may help.
compound	metricName	result
C/C(=C\C(=O)c1ccc(F)cc1)Nc1ccc(N2CCOCC2)cc1	viability	90.9% (inactive)
O=c1oc(-c2ccco2)nc2ccccc12	viability	91% (inactive)
CC(=O)Nc1nc2c(c3c1c(=O)oc1ccccc13)CC(C)CC2 (configuration not stated)	viability	92.1% (inactive)
CCN(CC)c1ccc2c(C)c(-c3ccc(N)cc3)c(=O)oc2c1	viability	61.8% (inactive)

Task item: Please look at this compound and report its viability: C=CCC1(O)C(=O)Nc2ccccc21 (configuration not stated)
Reply: 98.2% (inactive)

Task item: Indicate the recorded viability value for this compound: O=c1oc2ccccc2c(N2CCCCC2)c1CN1CCCCC1
Reply: 82.5% (inactive)

Task item: Report viability for CN(C1CCCCC1)S(=O)(=O)c1ccc(S(=O)(=O)N2CCCC2)cc1
Reply: 78.5% (inactive)

###

test: reversal of MRP1-mediated doxorubicin resistance, pilot screen, H69AR cells, doxorubicin co-treatment (AID 601); settings: H69AR cells + 2 uM doxorubicin, CellTiter-Glo, 72 h; at 10 µM; stronger effect = higher value
metricName: differential viability (reversal) (%)
Write the value in % as a bare number.

Study these solved cases before continuing.
molecule	differential viability (reversal) (%)
CCOC(=O)N1CCN(C(=O)COc2cc(=O)n(C)c3ccccc23)CC1	16.7
CCOC(=O)N1CCC(N2C(=O)c3ccccc3C2Nc2cccnc2)CC1 (centres undefined)	0.11
CCCCOc1ccc(S(=O)(=O)n2c(C)nc3ccccc32)cc1	-7.77
COc1ccc(NC(=O)Cn2nnc(-c3ccccc3F)n2)cc1Cl	3.27
COc1ccccc1CNS(=O)(=O)c1cccc(S(=O)(=O)N2CCOCC2)c1	3.38
c1cc2c(cc1Nc1nc(-c3ccc4c(c3)OCO4)cs1)OCCO2	-8.93

Task item: Identify measured differential viability (reversal) corresponding to Cc1cccn2c(=O)c3cc(C(=O)NC4CCCC4)c(=N)n(C4CCCC4)c3nc12
Reply: 15.5

Task item: For the molecule COc1ccccc1N1CCN(c2cc(N3CCCC3)nc(C)n2)CC1 , give its reported differential viability (reversal).
Reply: -3.8

Task item: Query differential viability (reversal) for Cn1nc(-c2ccc(C(=O)NCC3CCCO3)cc2)c2ccccc2c1=O (centres undefined)
Reply: 13.5

Task item: Give the measured differential viability (reversal) for OC[C@H]1O[C@@H](n2cnc3c(NC4CCCC4)ncnc32)[C@H](O)[C@@H]1O
Reply: -18.2

Task item: Dear colleague, please send me the reported differential viability (reversal) for CCN(CC)S(=O)(=O)c1ccc(C(=O)N2CCN=C2SCc2cccnc2)cc1 when you can.
Reply: -3.98

###

experiment: growth suppression of yeast trafficking mutant, preliminary HTS, modulators of trafficking downstream of Golgi apparatus project, 1536-format plate, OD 615 nm (AID 637); settings: yeast transport mutant growth, absorbance 615 nm, 18 h; stronger effect = higher value
metricName: inhibition (%)
Return type: number; implicit unit %.

compound	unitDescriptor	inhibition
CC(C)(C)c1ccc(C(O)CCCN2CCC(C(O)(c3ccccc3)c3ccccc3)CC2)cc1 (configuration not stated)	%	-1
CN(C)CC(O)COc1ccc(-c2ccc(C#N)cc2)cc1 (configuration not stated)	%	-6.61
c1ccc(-c2csc(N3CCCCCC3)n2)cc1	%	-4.35

Task item: Report inhibition, nothing else, for this compound: CC1=C(C(=O)Nc2ccccc2C)C2(CCCC2)C(C(N)=O)C(=O)N1 (configuration not stated)
Reply: 0

Task item: For the compound CN1CCN(C(=O)c2cnn3c(C(F)F)cc(C4CC4)nc23)CC1 , give its measured inhibition value.
Reply: 3.23

###

Documented viability across a set of compounds
test: reversal of MRP1-mediated doxorubicin resistance, pilot screen, H69AR cells, doxorubicin co-treatment (AID 601); conditions: H69AR cells + 2 uM doxorubicin, CellTiter-Glo, 72 h; measured here: viability with 2 uM doxorubicin; at 10 µM; stronger effect = lower value
Only the number, expressed in %, is required.

Task item: Note down viability recorded for O=C(NC1=NCCS1)c1nc(-c2ccccc2)n(-c2ccccc2)n1
Reply: 92.1

Task item: Return value of viability for input CCOC(=O)C1CSc2[nH]c(=O)sc2C1c1ccccc1 (stereo not drawn) , no commentary.
Reply: 103

Task item: Give recorded viability. COc1cccc(C(c2nnnn2Cc2ccccc2)N2CCN(C(=O)c3ccco3)CC2)c1OC (stereo not drawn)
Reply: 91.4

Task item: Return reported viability. Input compound: CCc1nnc(NC(=O)CSc2nc(-c3ccc(OC)cc3)ns2)s1
Reply: 93.7

Task item: Report viability, nothing else, for this compound: OCCN1CCN(CCCN2c3ccccc3Sc3ccc(C(F)(F)F)cc32)CC1
Reply: 3.77

###

test: 384-well plate pilot, post-Golgi transport modulator project, inhibition of yeast transport mutant growth (AID 636); conditions: absorbance 615 nm, about 18 h, stronger effect = higher value
metricName: inhibition (%)
Write it as a number; the unit % goes unstated.

Please review the entries below; each comes with its answer.
compound	inhibition / %
O=c1[nH]c2cc3c(cc2cc1C(c1nnnn1C1CCCCC1)N1CCSCC1)OCCO3 (stereo not drawn)	-0.81
O=C(CCNC(=O)c1ccc(Br)o1)NC1CCCC1	-4.4
COc1ccc(NC(=O)CSc2nc3c(c(=O)n2-c2ccc(F)cc2)SCC3)c(OC)c1	-6.71
Cc1ccc2occ(CN3CCN(c4ccccc4)CC3)c(=O)c2c1	-1.04
CC(NC(=O)OCc1ccccc1)C(=O)N1CC(O)CC1C(=O)O (stereo not drawn)	-0.39

Task item: Return inhibition (reported value) for this compound: CCOC(=O)/C=C(\C)Sc1cc(=O)oc2ccccc12
Reply: -0.92

Task item: Return inhibition (reported value) for this compound: C=COCCNC(=O)Nc1ccc(Cl)c(Cl)c1
Reply: 2.16

Task item: Please give measured inhibition of the following entry: O=C(O)C1CCCCC1C(=O)Nc1ccccn1 (stereo not drawn)
Reply: -4.52
